Provide the recorded pKd for the entries that follow.
biological target: SNX9 SH3 domain (aa 1-62) (Homo sapiens)
Sequence (Q9Y5X1 1-62): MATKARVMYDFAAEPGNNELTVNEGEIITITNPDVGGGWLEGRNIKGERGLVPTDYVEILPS
pKd: −log10 of the molar value. Peptide text beside a SMILES is read from it.

// query What does the data say about its pKd? Entry: CC(C)C[C@H](NC(=O)[C@H](Cc1c[nH]cn1)NC(=O)[C@H](CC(C)C)NC(=O)[C@@H]1CCCN1C(=O)[C@H](CO)NC(=O)[C@H](CO)NC(=O)[C@@H](N)CO)C(=O)N[C@@H](CCC(N)=O)C(=O)N1CCC[C@H]1C(=O)N1CCC[C@H]1C(=O)N1CCC[C@H]1C(=O)N[C@@H](CC(C)C)C(=O)NCC(=O)N[C@@H](CCCCN)C(=O)N[C@@H](CCCCN)C(=O)O [Peptide P6] (H-SSSPLHLQPPPLGKK-OH; N-terminus and C-terminus assumed)
// result < 3.70

// query Try the molecule CC(C)C[C@H](NC(=O)[C@@H](NC(=O)[C@@H](N)C(C)C)[C@@H](C)O)C(=O)N1CCC[C@H]1C(=O)N[C@@H](Cc1c[nH]cn1)C(=O)NCC(=O)N1CCC[C@H]1C(=O)N[C@@H](CCCNC(=N)N)C(=O)N[C@@H](CO)C(=O)N[C@@H](C)C(=O)O [Peptide P2] (H-VTLPHGPRSA-OH)
// result < 3.70

====

Target: ARHGAP12 SH3 domain (aa 12-74) (Homo sapiens, UniProt Q8IWW6)
Sequence (Q8IWW6 12-74): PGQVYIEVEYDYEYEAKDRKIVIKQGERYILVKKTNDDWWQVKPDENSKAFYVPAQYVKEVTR
Peptide text beside a SMILES is read from it.
Hi there, I'd appreciate the recorded Kd for every entry that follows.

// query Requested field: Kd. Item: CC(C)C[C@H](NC(=O)[C@@H]1CCCN1C(=O)[C@@H]1CCCN1C(=O)[C@H](CO)NC(=O)[C@@H]1CCCN1C(=O)[C@H](CC(C)C)NC(=O)[C@H](Cc1c[nH]cn1)NC(=O)[C@@H](N)CCCNC(=N)N)C(=O)N[C@H](C(=O)N[C@@H](CCC(N)=O)C(=O)O)[C@@H](C)O [Peptide P8] (H-RHLPSPPLTQ-OH; N-terminus and C-terminus assumed)
// result > 200 µM

// query Subsequent entry: CC[C@H](C)[C@H](NC(=O)[C@H](C)NC(=O)[C@@H]1CCCN1C(=O)[C@@H]1CCCN1C(=O)[C@H](CO)NC(=O)[C@H](CC(=O)O)NC(=O)[C@@H](N)CC(C)C)C(=O)N1CCC[C@H]1C(=O)N1CCC[C@H]1C(=O)N[C@@H](CCCNC(=N)N)C(=O)N[C@@H](CCC(N)=O)C(=O)N1CCC[C@H]1C(=O)N[C@H](C(=O)N[C@@H](CO)C(=O)N[C@@H](CCCCN)C(=O)O)[C@@H](C)O [Peptide P4] (H-LDSPPAIPPRQPTSK-OH)
// result > 200 µM

// query Likewise for CC[C@H](C)[C@H](N)C(=O)N[C@@H](C)C(=O)NCC(=O)N1CCC[C@H]1C(=O)N1CCC[C@H]1C(=O)N[C@H](C(=O)N1CCC[C@H]1C(=O)N1CCC[C@H]1C(=O)N[C@@H](CCCNC(=N)N)C(=O)N[C@@H](CCC(N)=O)C(=O)N[C@@H](CO)C(=O)O)C(C)C [Peptide P9] (H-IAGPPVPPRQS-OH) ?
// result > 200 µM

# credit: paper PMC10814857
